# procedure.summary: elimination half-life in slow metabolisers
# Type: in vivo, human
# study.conditions: human, in vivo; slow metabolisers (deficient in CYP2C19 activity); read-out: T1/2 (elimination half-life) (converted)
attribute.measured: half-life (h)
Lab book: enter the figure in h, no units written.

# query: half-life of entry COc1ccc2[nH]c([S+]([O-])Cc3ncc(C)c(OC)c3C)nc2n1 (single isomer, unassigned; (-)) [(−) isomer]
9.7

###

# procedure.summary: mean plasma half-life at doses between 10 mg and 80 mg
# Type: in vivo
# study.conditions: human, doses of between 10 mg and 80 mg
attribute.measured: half-life

# query: half-life of entry COc1ccc2[nH]c([S+]([O-])Cc3ncc(C)c(OC)c3C)nc2n1 (single isomer, unassigned; (-)) [(−) isomer]
10 to 12 h
